Entries and their pIC50
biological target: UniProt P08482; test: M1 receptor binding ([^3 H]-pirenzepine); design: species or system rat (male Sprague-Dawley); settings: Table 1; rat brain tissue, [^3 H]PZ 0.5 nM; read-out: ^3 H-Pirenzepine M1 IC50
Sequence (P08482 whole entry): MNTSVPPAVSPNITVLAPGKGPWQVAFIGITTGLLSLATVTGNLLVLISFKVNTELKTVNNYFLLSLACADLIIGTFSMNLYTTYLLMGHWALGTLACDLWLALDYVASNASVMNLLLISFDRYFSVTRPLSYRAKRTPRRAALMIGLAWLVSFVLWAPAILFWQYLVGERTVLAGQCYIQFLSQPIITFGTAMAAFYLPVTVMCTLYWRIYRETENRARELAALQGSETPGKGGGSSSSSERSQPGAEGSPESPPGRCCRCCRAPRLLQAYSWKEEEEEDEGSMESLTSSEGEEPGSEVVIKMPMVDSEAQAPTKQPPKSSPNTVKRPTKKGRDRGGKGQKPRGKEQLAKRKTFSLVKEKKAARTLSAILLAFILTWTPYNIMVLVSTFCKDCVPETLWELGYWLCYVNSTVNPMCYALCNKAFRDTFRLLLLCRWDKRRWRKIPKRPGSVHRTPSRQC
pIC50: −log10 of the molar value. Structures can show the parent of a compound that is named as a salt.
result-type: pIC50

CCN(CC)CCCNc1cc(C)c2ccccc2n1 [Example 11, dihydrochloride hemihydrate]    6.68
Cc1cc(NCCCN2CCCCC2)nc2ccccc12 [Example 8, hemihydrate]    6.38
Cc1cc(NCCCCN2CCN(C)CC2)nc2ccccc12 [Example 6, hydrate]    6.43
Cc1cc(NCCN(C)C)nc2ccccc12.O=C(O)/C=C/C(=O)O    5.88
CCc1cc(NCCCN2CCOCC2)nc2ccccc12 [Example 9, hydrate]    5.70
